assay: xn = mol fraction of the nth substance listed; details: 303.15 K; 101.33 kPa; x2 = 0.7
OUTCOME_MEASURE: viscosity (mPa·s)
Answers are plain numbers, in mPa·s.

Some entries whose results are on file:
                   compound  result_number
0     CC[N+](=O)[O-] + CCCO          0.967
1  CC[N+](=O)[O-] + CCC(C)O           1.07
2      CC[N+](=O)[O-] + CCO          0.682

// switching to the query compound
**Q:** Requested read-out: viscosity. Entry: CC[N+](=O)[O-] + CC(C)O
**A:** 0.877

---

assay: xn = mol fraction of the nth substance listed; conditions: 293.15 K; 101.33 kPa; x2 = 0.45
± gives the uncertainty stated by the source.
Could you please report measured viscosity for the items listed next?
Provide the measurement as a number trailed by its unit.

In [3]: df
Out[3]:
                molecule               result
0    CC[N+](=O)[O-] + CO  0.564 ± 0.005 mPa·s
1  CC[N+](=O)[O-] + CCCO  0.848 ± 0.007 mPa·s
2   CC[N+](=O)[O-] + CCO  0.681 ± 0.006 mPa·s

**Q:** Requested read-out: viscosity. Entry: CC[N+](=O)[O-] + CCC(C)O
**A:** 0.904 ± 0.008 mPa·s

---

Could you please report measured viscosity for the items listed next?
assay: xn = mol fraction of the nth substance listed; details: 313.15 K; 101.33 kPa; x2 = 0.65
Numbers only, in mPa·s.

Some entries whose results are on file:
>>> print(df.to_string())
                  molecule  outcome_measure  result_number
0  CC[N+](=O)[O-] + CC(C)O        viscosity          0.683
1     CC[N+](=O)[O-] + CCO        viscosity          0.567
2      CC[N+](=O)[O-] + CO        viscosity          0.428

// switching to the query molecule
**Q:** Requested read-out: viscosity. Entry: CC[N+](=O)[O-] + CCCO
**A:** 0.756

---

test: xn = mol fraction of the nth substance listed; conditions: 293.15 K; 101.33 kPa; x2 = 0.9
OUTCOME_MEASURE: viscosity (mPa·s)
Numbers only, in mPa·s.

>>> print(df.to_string())
                  molecule  result_number
0     CC[N+](=O)[O-] + CCO          1.015
1    CC[N+](=O)[O-] + CCCO          1.717
2  CC[N+](=O)[O-] + CC(C)O          1.681

**Q:** Requested read-out: viscosity. Entry: CC[N+](=O)[O-] + CO
**A:** 0.567

---

Could you please report measured viscosity for the items listed next?
test: xn = mol fraction of the nth substance listed; conditions: 313.15 K; 101.33 kPa; x2 = 0.35
Answers are plain numbers, in mPa·s.

Some entries whose results are on file:
In [3]: df
Out[3]:
                     compound  outcome_measure  unit_info  result_number
0       CC[N+](=O)[O-] + CCCO        viscosity      mPa·s          0.581
1  CC[N+](=O)[O-] + CC(C)(C)O        viscosity      mPa·s          0.597
2     CC[N+](=O)[O-] + CC(C)O        viscosity      mPa·s          0.546
3    CC[N+](=O)[O-] + CCC(C)O        viscosity      mPa·s          0.586

**Q:** Requested read-out: viscosity. Entry: CC[N+](=O)[O-] + CCO
**A:** 0.509
